Each record here notes measured TGI.
- Test system: NCI-H23 lung
- test details: NCI tumour cell line growth inhibition, 48 h
quantity kind: TGI

[[record]]
molecule = "CCCCCCCCOP(=O)(O)OP(=O)(O)OCC1OC(n2ccc(N)nc2=O)C(O)C1O (stereo not drawn)"
quantity_kind = "TGI"
reported = "> 100 µM"

[[record]]
molecule = "Fc1cc(C2=Nn3c(nnc3-c3cc(F)c(Cl)cc3Cl)SC2)c(Cl)cc1Cl"
quantity_kind = "TGI"
reported = "> 100 µM"

[[record]]
molecule = "Nc1ccc(-c2nnc(-c3c(Cl)c(Cl)c(Cl)c(Cl)c3-c3nc4ccc(C(=O)c5ccccc5)cc4[nH]3)o2)cc1"
quantity_kind = "TGI"
reported = "> 100 µM"

